- Target Of Assay: MCT4 (Homo sapiens (Human))
- Sequence (O15427 whole entry, looked up): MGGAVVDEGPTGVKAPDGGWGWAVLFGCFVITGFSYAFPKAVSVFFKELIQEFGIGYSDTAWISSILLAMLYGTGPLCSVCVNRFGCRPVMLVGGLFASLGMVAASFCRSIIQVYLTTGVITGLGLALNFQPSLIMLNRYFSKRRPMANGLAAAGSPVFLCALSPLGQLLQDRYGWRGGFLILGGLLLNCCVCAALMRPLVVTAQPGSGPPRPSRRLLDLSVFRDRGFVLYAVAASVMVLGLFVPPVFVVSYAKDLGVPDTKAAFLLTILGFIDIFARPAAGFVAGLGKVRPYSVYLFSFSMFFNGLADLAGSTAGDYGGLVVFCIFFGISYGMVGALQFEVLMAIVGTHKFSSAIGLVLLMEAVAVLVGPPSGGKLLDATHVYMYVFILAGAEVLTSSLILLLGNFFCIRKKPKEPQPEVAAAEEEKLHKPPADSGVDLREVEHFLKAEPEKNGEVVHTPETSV
- Sequence (P35613 whole entry partner, looked up): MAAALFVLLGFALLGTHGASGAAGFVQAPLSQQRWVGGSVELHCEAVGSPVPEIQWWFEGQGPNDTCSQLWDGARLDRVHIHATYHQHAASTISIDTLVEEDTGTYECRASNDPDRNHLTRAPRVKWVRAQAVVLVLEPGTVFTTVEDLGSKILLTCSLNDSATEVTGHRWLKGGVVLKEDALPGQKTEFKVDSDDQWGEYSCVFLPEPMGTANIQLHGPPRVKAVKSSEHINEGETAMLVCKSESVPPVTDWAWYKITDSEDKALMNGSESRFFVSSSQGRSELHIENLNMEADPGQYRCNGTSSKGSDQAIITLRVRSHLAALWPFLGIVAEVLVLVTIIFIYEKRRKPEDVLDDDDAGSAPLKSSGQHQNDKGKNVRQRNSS
- Test Protocol: Assay 3: MCT4-mediated lactate transport in MDA-MB-231 breast cancer cells
- Type: cell-based
Value Type: IC50
Number plus unit, in that order.

Would you mind telling me what IC50 value was observed for `CC(C)(OCc1cc(-c2cccc(OC3CC3)c2)n(-c2ccccc2C#N)n1)C(=O)O` ? 150 nM

* * *

- Test Protocol: Metabolic stability in human liver microsomes (in vitro t1/2)
- Format: in vitro ADME
- Details: human liver microsomes 0.5 mg/mL, 2 μM compound; read-out: Human microsome t1/2, min
- Experimental: The following are assays that may be used to evaluate the metabolic stability of compounds of Formula (I) in human, rat, or mouse microsomes. The assays follow a common procedure recited below. 1. […] Peak areas were determined from extracted ion chromatograms. The slope value, k, was determined by linear regression of the natural logarithm of the remaining percentage of the parent drug vs. incubation time curve. […]
Value Type: half-life at 2 µM
# answer = value followed by unit

Could you share which half-life at 2 µM value was measured for `CC[C@](C)(OCc1cc(-c2cccc(OC)c2)n(Cc2ccccc2Cl)n1)C(=O)O` ? 3.3 h

For `COc1cc(-c2cc(COC(C)(C)C(=O)O)nn2Cc2ccccc2Cl)cs1` , what is its reported half-life at 2 µM? 2 h

Requested read-out: half-life at 2 µM. Entry: `CCOc1ccccc1Cn1nc(COC(C)(C)C(=O)O)cc1-c1cc(OC)cc(OC)c1` 3 h

Item `COc1cccc(-c2cc(COC(C)(C)C(=O)O)nn2Cc2ccccc2OC)c1` has what recorded half-life at 2 µM? 4.83 h

For the compound shown here, `CC(C)COc1cccc(-c2cc(COC(C)(C)C(=O)O)nn2-c2cccc3cnn(C)c23)c1` , give the reported half-life at 2 µM. 7.85 h

Bench note: what half-life at 2 µM did `CCOc1cccc(-n2nc(COC(C)(C)C(=O)O)cc2-c2cc(OC)cc(OC)c2)c1` show? 7.22 h

Which half-life at 2 µM is reported for this compound? `COc1cc(OC)cc(-c2cc(COC(C)(C)C(=O)O)nn2-c2ccccc2Cl)c1` 10.7 h

GET /values?readout=half-life at 2 µM&item= `COc1cccc(-c2cc(COC(C)(C)C(=O)O)nn2-c2ccccc2Cl)c1` 3.17 h

Name the recorded half-life at 2 µM for `CCOc1ccccc1Cn1nc(COC(C)(C)C(=O)O)cc1-c1cccc(OC2CC2)c1` . 1.38 h

What does the record list as half-life at 2 µM for `CCn1ncc2ccc(-c3cc(COC(C)(C)C(=O)O)nn3-c3ccccc3N3CCCC3)cc21` ? 1.72 h

Please look up its half-life at 2 µM: `CCOc1ccccc1Cn1nc(COC(C)(C)C(=O)O)cc1-c1ccc2cnn(CC)c2c1` 3.45 h

May I ask what half-life at 2 µM has been recorded for `CC(C)Cc1ncc(-c2cc(COC(C)(C)C(=O)O)nn2Cc2ccccc2Cl)o1` ? 3.1 h

Endpoint output: half-life at 2 µM of `Cn1ncc2cccc(-n3nc(COC(C)(C)C(=O)O)cc3-c3cccc(OCC(C)(C)C)c3)c21` . Value? 4.17 h

Bench note: what half-life at 2 µM did `COc1cccc(-c2cc(COC(C)(C)C(=O)O)nn2Cc2ccccc2Cl)c1` show? 4.08 h

Give its half-life at 2 µM value. Item: `CC(C)COc1cccc(-c2cc(COC(C)(C)C(=O)O)nn2Cc2ccccc2Cl)c1` 0.833 h

I would be grateful if you could share the reported half-life at 2 µM for `CC(C)Oc1cccc(-c2cc(COC(C)(C)C(=O)O)nn2Cc2ccccc2Cl)c1` . 1.92 h

Given the entry `COc1cccc(-c2cc(COC(C)(C)C(=O)O)nn2Cc2ccccc2OC(C)C)c1` , report its measured half-life at 2 µM. 1.82 h
